Molecular target: T1, TNFR1 (Homo sapiens, UniProt P19438)
T1 chain: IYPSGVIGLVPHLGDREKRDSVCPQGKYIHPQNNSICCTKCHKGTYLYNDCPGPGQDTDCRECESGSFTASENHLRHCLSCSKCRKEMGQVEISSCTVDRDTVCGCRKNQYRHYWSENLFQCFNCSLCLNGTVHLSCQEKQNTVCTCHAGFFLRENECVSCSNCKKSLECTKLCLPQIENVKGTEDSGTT
Test: yeast display SC50
readout-type: apparent Kd (screen) (nM)

Some binders with recorded apparent Kd (screen):
| binder | apparent Kd (screen), nM |
| --- | --- |
| E91W (designed binder) SMEEEVEKAAKEYEKKKKEAIEKHLEKLKAKDKEAAERFLKELEEAAKEYAKDEAKTMSEEEAKRRAKKYKEKVLLSELSEEEQKEIKEAWEKLVRTILKYVEEAAK | 6.43 |
| E78R (designed binder) SMEEEVEKAAKEYEKKKKEAIEKHLEKLKAKDKEAAERFLKELEEAAKEYAKDEAKTMSEEEAKRRAKKYKEKVLLSRLSEEEQKEIKEAEEKLVRTILKYVEEAAK | 1.86 |
| R65G (designed binder) SMEEEVEKAAKEYEKKKKEAIEKHLEKLKAKDKEAAERFLKELEEAAKEYAKDEAKTMSEEEAKGRAKKYKEKVLLSELSEEEQKEIKEAEEKLVRTILKYVEEAAK | 0.956 |

P = E92A (designed binder) SMEEEVEKAAKEYEKKKKEAIEKHLEKLKAKDKEAAERFLKELEEAAKEYAKDEAKTMSEEEAKRRAKKYKEKVLLSELSEEEQKEIKEAEAKLVRTILKYVEEAAK
Q = E12W (designed binder) SMEEEVEKAAKWYEKKKKEAIEKHLEKLKAKDKEAAERFLKELEEAAKEYAKDEAKTMSEEEAKRRAKKYKEKVLLSELSEEEQKEIKEAEEKLVRTILKYVEEAAK
R = K48C (designed binder) SMEEEVEKAAKEYEKKKKEAIEKHLEKLKAKDKEAAERFLKELEEAACEYAKDEAKTMSEEEAKRRAKKYKEKVLLSELSEEEQKEIKEAEEKLVRTILKYVEEAAK
S = R38F (designed binder) SMEEEVEKAAKEYEKKKKEAIEKHLEKLKAKDKEAAEFFLKELEEAAKEYAKDEAKTMSEEEAKRRAKKYKEKVLLSELSEEEQKEIKEAEEKLVRTILKYVEEAAK
Ordering: ascending apparent Kd (screen). Provide your answer as the labels ordered per the instruction.
R, S, Q, P
(R: 0.49 nM, S: 1.05 nM, Q: 1.54 nM, P: 12.5 nM)

P = K48L (designed binder) SMEEEVEKAAKEYEKKKKEAIEKHLEKLKAKDKEAAERFLKELEEAALEYAKDEAKTMSEEEAKRRAKKYKEKVLLSELSEEEQKEIKEAEEKLVRTILKYVEEAAK
Q = Q84T (designed binder) SMEEEVEKAAKEYEKKKKEAIEKHLEKLKAKDKEAAERFLKELEEAAKEYAKDEAKTMSEEEAKRRAKKYKEKVLLSELSEEETKEIKEAEEKLVRTILKYVEEAAK
Given the two records P and Q , choose the one whose apparent Kd (screen) value is lower. Let me know the label of the one you choose.
P
(P: 0.49 nM, Q: 11.4 nM)
